The measurements presented in this section are drawn from the RNAGym collection of RNA variant scans (doi:10.1126/science.aae0568).

Field: yeast fitness. Provide a value for each of the variants that follow.
B1: tRNA (parent)
chain: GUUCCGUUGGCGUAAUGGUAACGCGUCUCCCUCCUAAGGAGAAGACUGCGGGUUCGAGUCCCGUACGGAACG

Variants of: B1
Experiment: yeast fitness relative to wild type (ratio to wild type); higher = fitter; tRNA-Arg(CCU), competitive growth, 37 C, YPD
This sample holds only a part of the variants without activity.
One number for each entry.

# example entries with known answers
# yeast fitness lookup, item GUUCCGGUGGCGUAAUGGUAACGCGUCUCCCUCCUAAGGAGAAGACUGCGGGUUCGUGUCCCGUACGGAACG [U7G A57U] 0.599

# yeast fitness lookup, item GGUCCGUUGGGGUAAUGGUGACGUGUCUCCGUCCUAAGGAGAAGACUGCGGGUUCGAGUCCCGUACGGAACG [U2G C11G A20G C24U C31G] 0.615

# yeast fitness lookup, item GUCCCGUUAGCGUAAUGGUAACGCGUCGCCCUCCUAAGGAGAAGACUGCGGGUUCGAGUCCCGUACGGAACG [U3C G9A U28G] 0.59

# yeast fitness lookup, item GUUCCAUUGGCGUAAUGGUAACGCGUCUCCGUCCUAAGGAGAAGACUGCAGGUUCGAGUCCCGUACGGAACG [G6A C31G G50A] 0.61

# yeast fitness lookup, item GUUCCGUUGGCGUAAUGGUAACGCGUCUCCCUCCUAAGGAGAAGCCUGCGGGUUCGUGUCCCGUCCGGAACG [A45C A57U A65C] 0.617

Now look at this entry.
# yeast fitness lookup, item GUUCCGUUGGCGUAAUGGUAACGCGUUGCCCUCCUAAGGCGAAGACUGCGGGUUCGAGUCCCGUACGGCACG [C27U U28G A40C A69C] 0.607
